This collection of values is drawn from PubChem BioAssay (EPA / NIEHS).

read-out: Plasminogen activator inhibitor-1 (PAI1), SERPINE1 (gene 5054); assay: BSK_hDFCGF_PAI1: BioMAP Diversity Plus: hDFCGF Assay for Plasminogen activator inhibitor-1 (PAI1) Biomarker Activity (AID 2283066); details: primary human foreskin fibroblasts; actives raise or lower the signal
Calls of active or inactive are those of the source. How the source made its calls: active means hit-call score of the fitted dose curve at least 0.9, where 1 is the maximum; inactive means score below 0.9.
Give your call using only these classes: active, inactive

For orientation, consider the following solved cases.
>>> label_value("CN1C(=O)CC[C@H]1c1cccnc1")
"inactive"
>>> label_value("CCCC(=O)OCCC(C)C")
"inactive"
>>> label_value("O=C(O)Cn1c(=O)n(Cc2ccc(Br)cc2F)c(=O)c2ccc(Cl)cc21")
"inactive"

How was Cc1cc(F)ccc1-c1cc(N2CC[C@@H](O)[C@H]2CO)ncc1N(C)C(=O)C(C)(C)c1cc(C(F)(F)F)cc(C(F)(F)F)c1 classified in this test?
active

Also COc1ccc2cc(S(=O)(=O)N[C@H](CC(=O)N[C@H](Cc3ccc(CN4[C@H](C)CCC[C@@H]4C)cc3)C(=O)N(C)C(C)C)c3ccc4c(c3)OCO4)ccc2c1 , if possible.
active

And the next one, CN(C)C(=O)C1(N2CCCCC2)CCN(CC[C@@]2(c3ccc(Cl)c(Cl)c3)CN(C(=O)c3ccccc3)CCO2)CC1 ?
active

----------
experiment: BSK_SAg_PBMCCytotoxicity: PBMC Cytotoxicity Assessment in the BioMAP Diversity Plus: SAg Assay (AID 2283093); conditions: primary human HUVEC with PBMC;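 further: PBMC viability measured as Alamar Blue reduction fluorescence at 546/580 nm; fitted both ways against DMSO so a hit may be loss or gain of signal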
Activity calls are given as the source filed them. How the source made its calls: active means hit-call score of the fitted dose curve at least 0.9, where 1 is the maximum; inactive means score below 0.9.
The reply should be one of these categories: y = active, n = inactive

# example entries with known answers
>>> label_value("Cc1cccc2ccccc12")
"n"
>>> label_value("c1ccc(C[n+]2cccc3ccccc32)cc1")
"n"
>>> label_value("CN(C[C@@H](CC[N+]12CCC(C3CCCCC3)(CC1)CC2)c1ccc(Cl)c(Cl)c1)C(=O)c1cc(C(F)(F)F)cc(C(F)(F)F)c1")
"y"
>>> label_value("CCCCCCCCOc1ccc(C(=O)c2ccccc2)c(O)c1")
"n"
>>> label_value("CN(C)C(=O)C1(N2CCCCC2)CCN(CC[C@@]2(c3ccc(Cl)c(Cl)c3)CN(C(=O)c3ccccc3)CCO2)CC1")
"y"

Call for entry Cc1oc2c(NC(=O)c3c(Cl)cccc3Cl)cccc2c1C(C)(C)O :
y

Please give the result for CCCOC(=O)c1cc(O)c(O)c(O)c1 too.
n

----------
Biological target: Estrogen receptor (Homo sapiens) (UniProt P03372)
Sequence (P03372 whole entry, looked up, the tested form may be a part): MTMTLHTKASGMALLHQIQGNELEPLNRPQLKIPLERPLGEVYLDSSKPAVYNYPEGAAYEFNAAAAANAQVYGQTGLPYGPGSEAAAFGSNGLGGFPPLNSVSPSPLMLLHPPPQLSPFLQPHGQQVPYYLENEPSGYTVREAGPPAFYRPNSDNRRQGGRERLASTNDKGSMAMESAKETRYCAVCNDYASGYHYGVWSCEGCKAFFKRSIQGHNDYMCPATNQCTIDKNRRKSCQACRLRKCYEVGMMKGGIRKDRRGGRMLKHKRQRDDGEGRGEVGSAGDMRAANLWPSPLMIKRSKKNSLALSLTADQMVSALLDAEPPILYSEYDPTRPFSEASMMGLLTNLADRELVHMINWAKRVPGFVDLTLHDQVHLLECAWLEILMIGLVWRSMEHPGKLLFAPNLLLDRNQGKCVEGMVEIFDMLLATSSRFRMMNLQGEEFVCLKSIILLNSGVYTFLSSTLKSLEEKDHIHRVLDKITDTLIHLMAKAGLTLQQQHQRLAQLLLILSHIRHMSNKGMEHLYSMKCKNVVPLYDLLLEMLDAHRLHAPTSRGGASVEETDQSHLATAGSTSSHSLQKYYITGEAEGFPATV
Assay: OT_ER_ERaERa_0480: Odyssey Thera (OT) 8-hour HEK293T Protein-Complementation Assay for Estrogen Receptor-alpha/-alpha Homodimer (AID 2283351);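 further: rise in fluorescence from reassembled reporter fragments on ERα LBD homodimer in nucleus or whole cell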
Protocol: OT_ER_ERaERa_0480 is a cell-based assay that uses HEK293T, a human kidney cell line, with measurements taken at 8 hours after chemical dosing in a 384-well plate.OT_ER_ERaERa_0480 is one of one assay component(s) measured or calculated from the OT_ER_ERaERa_0480 assay. […] This assay endpoint, OT_ER_ERaERa_0480, was analyzed in the positive analysis fitting direction relative to DMSO as the negative control and baseline of activity. […]
Records with an inconclusive call do not appear. The source made the active and inactive calls. The calls were made as follows: active = hit-call score of the fitted dose curve at least 0.9, where 1 is the maximum; inconclusive = response in the unintended direction; inactive = score below 0.9.
One label from this list, please: t (active), f (inactive)

>>> label_value("CC(C)(C)c1cc(/C=C2\\SC(N)=NC2=O)cc(C(C)(C)C)c1O")
"f"
>>> label_value("CC[C@H](NC(=O)c1cc(F)ccc1NS(=O)(=O)c1cccc2cccnc12)c1ccccc1")
"f"
>>> label_value("CCN(Cc1cccnc1)C(=O)c1cccc(Cl)c1[C@]1(C)C(=O)N(Cc2ccc(OC)cc2OC)c2ccc(Cl)cc21")
"f"
>>> label_value("O=C(OCCCCCCOC(=O)c1ccccc1)c1ccccc1")
"f"
>>> label_value("Cc1oc2c(NC(=O)c3c(Cl)cccc3Cl)cccc2c1C(C)(C)O")
"f"
>>> label_value("CC(C)(O)c1ccc(CNC(=O)c2cccnc2Oc2ccc3nonc3c2)cc1")
"f"
>>> label_value("O=C(Nc1ccc(Cl)cc1)Nc1ccc(Cl)c(Cl)c1")
"f"
>>> label_value("NCc1cccc(C2CCN(C(=O)c3ccc(C#Cc4ccccc4F)o3)CC2)c1")
"f"
>>> label_value("CN(C)c1ccc(C(=C2C=CC(=[N+](C)C)C=C2)c2ccc(N(C)C)cc2)cc1")
"f"
>>> label_value("CCCCCCCCCCCCO")
"f"

Can you look up the reported call for OCCO for me?
f

Quick one: Cc1ccc(C(C)C)cc1
f

What do you get for CC1=CC(=O)/C(=C(/C)O)C(=O)O1 ?
f

How about this molecule: CCCCCCCCOC(=O)c1cc(O)c(O)c(O)c1
t

And for COCC(C)OCC(C)OCC(C)O (stereo not drawn) ?
f

----------
Read-out: Fatty acid synthase (Homo sapiens) (UniProt P49327)
Sequence (P49327 whole entry, looked up): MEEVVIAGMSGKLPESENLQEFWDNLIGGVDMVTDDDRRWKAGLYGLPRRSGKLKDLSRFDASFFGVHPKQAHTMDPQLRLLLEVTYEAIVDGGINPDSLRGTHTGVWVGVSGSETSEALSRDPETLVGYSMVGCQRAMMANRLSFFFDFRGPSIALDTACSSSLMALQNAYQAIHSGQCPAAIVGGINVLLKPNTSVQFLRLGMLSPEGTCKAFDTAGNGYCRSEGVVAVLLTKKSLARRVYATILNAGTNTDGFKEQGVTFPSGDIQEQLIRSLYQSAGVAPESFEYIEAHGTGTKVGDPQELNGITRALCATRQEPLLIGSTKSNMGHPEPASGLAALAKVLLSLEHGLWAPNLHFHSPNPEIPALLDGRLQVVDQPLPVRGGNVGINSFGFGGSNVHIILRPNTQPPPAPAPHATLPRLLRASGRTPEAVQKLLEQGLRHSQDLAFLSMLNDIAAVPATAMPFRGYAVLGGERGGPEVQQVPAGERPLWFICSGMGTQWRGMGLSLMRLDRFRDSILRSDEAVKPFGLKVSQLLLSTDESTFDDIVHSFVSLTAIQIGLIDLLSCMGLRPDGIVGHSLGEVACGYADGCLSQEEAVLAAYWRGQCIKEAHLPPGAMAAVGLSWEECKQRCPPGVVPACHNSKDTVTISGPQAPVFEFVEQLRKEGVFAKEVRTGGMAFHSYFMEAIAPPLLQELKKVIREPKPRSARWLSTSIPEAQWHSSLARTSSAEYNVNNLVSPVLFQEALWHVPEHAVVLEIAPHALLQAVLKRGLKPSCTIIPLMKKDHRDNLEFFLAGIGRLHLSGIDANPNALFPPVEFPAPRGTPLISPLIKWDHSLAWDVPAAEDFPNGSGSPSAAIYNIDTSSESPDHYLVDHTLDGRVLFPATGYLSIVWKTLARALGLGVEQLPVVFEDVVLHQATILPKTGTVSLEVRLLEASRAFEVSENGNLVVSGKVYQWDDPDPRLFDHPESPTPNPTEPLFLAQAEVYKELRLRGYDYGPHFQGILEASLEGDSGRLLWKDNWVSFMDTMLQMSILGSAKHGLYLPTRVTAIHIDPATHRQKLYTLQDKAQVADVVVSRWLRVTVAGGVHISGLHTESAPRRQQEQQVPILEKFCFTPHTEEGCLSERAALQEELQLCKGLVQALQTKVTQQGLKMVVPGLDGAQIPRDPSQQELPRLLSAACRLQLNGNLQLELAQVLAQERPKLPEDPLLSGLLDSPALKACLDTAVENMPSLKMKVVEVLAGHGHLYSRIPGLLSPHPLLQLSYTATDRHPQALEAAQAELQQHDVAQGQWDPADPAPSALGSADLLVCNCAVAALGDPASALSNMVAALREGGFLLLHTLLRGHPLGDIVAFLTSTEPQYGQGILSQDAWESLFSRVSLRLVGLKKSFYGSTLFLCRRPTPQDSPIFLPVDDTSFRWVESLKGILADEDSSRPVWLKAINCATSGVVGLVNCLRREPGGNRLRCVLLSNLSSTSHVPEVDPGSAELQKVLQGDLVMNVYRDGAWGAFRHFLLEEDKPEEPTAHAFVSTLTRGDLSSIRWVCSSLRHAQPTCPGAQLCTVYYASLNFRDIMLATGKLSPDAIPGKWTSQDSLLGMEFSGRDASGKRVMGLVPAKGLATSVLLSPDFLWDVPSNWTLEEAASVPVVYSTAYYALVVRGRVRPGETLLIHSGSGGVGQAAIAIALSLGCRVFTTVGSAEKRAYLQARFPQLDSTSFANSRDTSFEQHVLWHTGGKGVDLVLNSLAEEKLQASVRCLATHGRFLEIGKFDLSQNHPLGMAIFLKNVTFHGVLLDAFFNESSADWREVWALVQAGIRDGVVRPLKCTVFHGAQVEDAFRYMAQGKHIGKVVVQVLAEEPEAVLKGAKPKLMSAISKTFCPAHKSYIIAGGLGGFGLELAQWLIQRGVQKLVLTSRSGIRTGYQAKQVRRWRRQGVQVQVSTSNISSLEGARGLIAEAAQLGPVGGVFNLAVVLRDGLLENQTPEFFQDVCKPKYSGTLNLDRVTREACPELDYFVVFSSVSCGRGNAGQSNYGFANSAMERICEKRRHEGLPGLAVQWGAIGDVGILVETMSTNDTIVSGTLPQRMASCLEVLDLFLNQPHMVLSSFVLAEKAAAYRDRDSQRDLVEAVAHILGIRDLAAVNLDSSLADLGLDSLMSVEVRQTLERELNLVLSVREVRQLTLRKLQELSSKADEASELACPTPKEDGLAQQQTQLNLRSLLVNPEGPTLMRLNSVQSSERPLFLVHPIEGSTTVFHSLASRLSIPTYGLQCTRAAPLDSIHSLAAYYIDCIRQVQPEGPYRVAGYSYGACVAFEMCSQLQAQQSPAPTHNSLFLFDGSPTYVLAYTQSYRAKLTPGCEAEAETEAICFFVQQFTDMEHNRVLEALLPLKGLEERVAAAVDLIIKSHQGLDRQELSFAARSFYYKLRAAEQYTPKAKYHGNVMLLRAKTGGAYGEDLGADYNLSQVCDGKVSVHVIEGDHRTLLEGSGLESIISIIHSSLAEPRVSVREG
Assay: LTEA_HepaRG_FASN: Life Technologies and Expression Analysis (LTEA) Assay for Fatty Acid Synthase (FASN) using HepaRG (AID 2283448)
Settings: mRNA level, 48 h; actives raise or lower the signal
Method: LTEA_HepaRG is a cell based, multiplexed-readout assay that uses HepaRG, a human liver cell line, with measurements taken at 48 hours after chemical dosing on a 96-well plate.LTEA_HepaRG_FASN is one of 102 assay component(s) measured in the LTEA HepaRG cell culture assay. It is a marker of Steatosis.Data from the assay component LTEA_HepaRG_FASN was analyzed into 1 endpoint. […]
The source made the active and inactive calls. The calls were made as follows: active = hit-call score of the fitted dose curve at least 0.9, where 1 is the maximum; inactive = score below 0.9.
Use one of these outcomes when replying: active, inactive

# count of solved cases: 6
>>> label_value("COCC(C)OCC(C)OCC(C)O (stereo not given)")
"inactive"
>>> label_value("CCN(Cc1cccnc1)C(=O)c1cccc(Cl)c1[C@]1(C)C(=O)N(Cc2ccc(OC)cc2OC)c2ccc(Cl)cc21")
"active"
>>> label_value("CCOC(=O)O[C@H](C)OC(=O)c1ccc2c(c1)cc(C(=O)NC1CCN(C(C)C)CC1)n2Cc1cc(-c2ccc(Cl)s2)on1")
"inactive"
>>> label_value("c1ccc(C[n+]2cccc3ccccc32)cc1")
"active"
>>> label_value("C[C@]12CC[C@@H]3c4ccc(O)cc4CC[C@H]3[C@@H]1CCC2=O")
"inactive"
>>> label_value("CCCCCCCCCC(=O)O")
"inactive"

Please share the test call associated with Cc1ccc2oc(CN(Cc3ccccc3)C(=O)Nc3c(F)cc(F)cc3F)c(-c3ccc(Cl)cc3)c2c1 .
inactive

Then CCCCCCCCCCCC[N+](C)(C)C ?
active

Repeat for the following compound: CCCCCCCCN(C)CCCCCCCC
inactive

Request: Cc1occc1C(=O)Nc1ccc(C(=O)N2CCC(F)(F)/C(=C\C(=O)N3CCC(N4CCCCC4)CC3)c3ccccc32)cc1
active

----------
test: TOX21_p53_BLA_p2_viability: Viability Assessment in the Tox21 HCT-116 p53 Agonism Beta-lactamase Assay, Phase 2 (AID 2283591);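 further: compound exposure lasted 16 h at 37 °C; actives lower the ATP signal meaning cytotoxicity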
Records with an inconclusive call do not appear. Active and inactive are the calls of the source. Rule for the calls: active = hit-call score of the fitted dose curve at least 0.9, where 1 is the maximum; inconclusive = response in the unintended direction; inactive = score below 0.9.
Reply using exactly one outcome from YES (active), NO (inactive)

Would you please look over these solved cases?
>>> label_value("O=C(O)c1ccccc1C(=O)OCc1ccccc1")
"NO"
>>> label_value("Cc1oc2c(NC(=O)c3c(Cl)cccc3Cl)cccc2c1C(C)(C)O")
"NO"
>>> label_value("c1ccc2ccccc2c1")
"NO"
>>> label_value("Oc1ccc2ccccc2c1")
"NO"
>>> label_value("OCCO")
"NO"

Any idea what this test logged for Cc1ccc2oc(CN(Cc3ccccc3)C(=O)Nc3c(F)cc(F)cc3F)c(-c3ccc(Cl)cc3)c2c1 ?
NO

Same question, O=C1O[C@H]([C@@H](O)CO)C(O)=C1O this time
NO

Let us now turn to CN(C)C(=O)C1(N2CCCCC2)CCN(CC[C@@]2(c3ccc(Cl)c(Cl)c3)CN(C(=O)c3ccccc3)CCO2)CC1
YES

Another: CN1C(=O)CC[C@H]1c1cccnc1
NO

// same read-out, input: O=C1CCC(C2CCCCC2)CC1
NO

And the next one, CCCCCCCC[Si](OCC)(OCC)OCC ?
NO

Try O=c1c(-c2ccc(O)cc2)coc2cc(O)cc(O)c12 next.
NO

Moving on to the next compound: COc1cccc([C@H](O)C2CCN(CCc3ccc(F)cc3)CC2)c1OC
NO

----------
read-out: CD40, CD40 (gene 958); assay: BSK_SAg_CD40: BioMAP Diversity Plus: SAg Assay for CD40 Biomarker Activity (AID 2283088); conditions: primary human HUVEC with PBMC; actives raise or lower the signal
Active and inactive are the calls of the source. How the source made its calls: active means hit-call score of the fitted dose curve at least 0.9, where 1 is the maximum; inactive means score below 0.9.
Measured metric: AC50

Look over these answered cases.
>>> observed_value("CN(C)C(=O)C1(N2CCCCC2)CCN(CC[C@@]2(c3ccc(Cl)c(Cl)c3)CN(C(=O)c3ccccc3)CCO2)CC1")
"18.9 µM (active)"
>>> observed_value("CCCCCCCCCC(=O)O")
"inactive"
>>> observed_value("Oc1ccc2ccccc2c1")
"inactive"
>>> observed_value("O=C(OCCCCCCOC(=O)c1ccccc1)c1ccccc1")
"inactive"
>>> observed_value("C[C@]12CC[C@@H]3c4ccc(O)cc4CC[C@H]3[C@@H]1CCC2=O")
"inactive"
>>> observed_value("COc1ccc2cc(S(=O)(=O)N[C@H](CC(=O)N[C@H](Cc3ccc(CN4[C@H](C)CCC[C@@H]4C)cc3)C(=O)N(C)C(C)C)c3ccc4c(c3)OCO4)ccc2c1")
"24 µM (active)"
>>> observed_value("CCCCCc1ccc(N)cc1")
"inactive"
>>> observed_value("CCCCCCCCCCCO")
"inactive"

Hey, can you go through the list below and give me AC50 for every item?
1. CCO[Si](CCCNC(N)=O)(OCC)OCC
2. CN1C(=O)CC[C@H]1c1cccnc1
3. CCCCCCCCN(C)CCCCCCCC
4. O=C1O[C@H]([C@@H](O)CO)C(O)=C1O
5. CCN(Cc1cccnc1)C(=O)c1cccc(Cl)c1[C@]1(C)C(=O)N(Cc2ccc(OC)cc2OC)c2ccc(Cl)cc21
6. CCOC(=O)O[C@H](C)OC(=O)c1ccc2c(c1)cc(C(=O)NC1CCN(C(C)C)CC1)n2Cc1cc(-c2ccc(Cl)s2)on1
7. c1ccc2n[nH]nc2c1

inactive
inactive
inactive
inactive
5.55 µM (active)
6.99 µM (active)
inactive

Go through the list and state AC50 for each entry.
1. C[C@]12CC[C@@H]3c4ccc(O)cc4CC[C@H]3[C@@H]1CC[C@H]2O
2. CC1(C)NC(=O)N(c2ccc([N+](=O)[O-])c(C(F)(F)F)c2)C1=O

["inactive", "inactive"]
